assayTarget: Angiotensin II receptor
assayExplanation: In vitro angiotensin II mesenteric artery receptor binding assay (test 1)
cond: rat mesenteric artery membrane fraction, 0.2 nM 125I-Ang II, 22°C, 90 minutes
# met = IC50 below 20 nM (exclusive); not met = IC50 at/above 20 nM

Q: Does this compound meet the criterion IC50 < 20 nM? CCCc1nc2c(=O)n3n(c(=O)c2n1Cc1ccc(-c2ccccc2-c2nn[nH]n2)cc1)C1(C(=O)N(CC)CC)CCC3CC1
A: not met

Q: Next entry: CCCc1nc2c(=O)n3n(c(=O)c2n1Cc1ccc(-c2ccccc2-c2nn[nH]n2)cc1)C(C)CCC3C(=O)N(CC)CC (centres unmarked)
A: met

Q: Next entry: CCCc1nc2c(=O)n3n(c(=O)c2n1Cc1ccc(-c2ccccc2-c2nnn[nH]2)cc1)C1(COCC(=O)OC(C)(C)C)CCC3CC1
A: not met

Q: Next entry: CCCc1nc2c(n1Cc1ccc(-c3ccccc3-c3nnn[nH]3)cc1)CN1C3CCC(CC3)N1C2
A: not met

Q: Next entry: CCCCc1nc2c(=O)n3n(c(=O)c2n1Cc1ccc(-c2ccccc2-c2nnn[nH]2)cc1)C1CCC3(CO)CC1
A: met

Q: Next entry: CCCCc1nc2c(=O)n3n(c(=O)c2n1Cc1ccc(C(=O)O)cc1)C(C(=O)O)CCC3C (centres unmarked)
A: not met

Q: Next entry: CCCCc1nc2c(=O)n3n(c(=O)c2n1Cc1ccc(-c2ccccc2-c2nn[nH]n2)cc1)C(C(=O)OCC)CCC3C (centres unmarked)
A: met

Q: Next entry: CCCc1nc2c(=O)n3n(c(=O)c2n1Cc1ccc(-c2ccccc2-c2nn[nH]n2)cc1)C1(C(=O)N(CCO)CCO)CCC3CC1
A: not met

Q: Next entry: CCCc1nc2c(=O)n3n(c(=O)c2n1Cc1ccc(-c2ccccc2-c2nn[nH]n2)cc1)C1CCC3(C(=O)N(CCO)CCO)CC1
A: not met

Q: Next entry: CCCCc1nc2c(n1Cc1ccc(-c3ccccc3-c3nnn[nH]3)cc1)CN1C(C)CCC(CO)N1C2=O (centres unmarked)
A: not met

Q: Next entry: CCCCc1nc2c(=O)n3n(c(=O)c2n1Cc1ccc(-c2ccccc2-c2nn[nH]n2)cc1)CC(C)=C(C)C3
A: met

Q: Next entry: CCCCc1nc2c(=O)n3n(c(=O)c2n1Cc1ccc(-c2ccccc2-c2nn[nH]n2)cc1)C1C=CC3CC1 (centres unmarked)
A: met

Q: Next entry: CCc1nc2c(=O)n3n(c(=O)c2n1Cc1ccc(-c2ccccc2-c2nn[nH]n2)cc1)C1(C)CCC3(C)CC1
A: not met

Q: Next entry: CCCc1nc2c(n1Cc1ccc(-c3ccccc3-c3nn[nH]n3)cc1)C(=O)N1CC(CC)=C(CC)CN1C2
A: not met

Q: Next entry: CCCc1nc2c(n1Cc1ccc(-c3ccccc3-c3nn[nH]n3)cc1)C(=O)N1C(C)CCC(C)N1C2 (centres unmarked)
A: met

Q: Next entry: CCCc1nc2c(=O)n3n(c(=O)c2n1Cc1ccc(-c2ccccc2-c2nn[nH]n2)cc1)CC(C)=C(C)C3
A: met
